systemTested: GAL4-mPPARγ (Mus musculus)
Construct: expressed in transfected cells; host or cells: COS7
Sequence (P37238 with tags, fused parts or gaps limits assumed): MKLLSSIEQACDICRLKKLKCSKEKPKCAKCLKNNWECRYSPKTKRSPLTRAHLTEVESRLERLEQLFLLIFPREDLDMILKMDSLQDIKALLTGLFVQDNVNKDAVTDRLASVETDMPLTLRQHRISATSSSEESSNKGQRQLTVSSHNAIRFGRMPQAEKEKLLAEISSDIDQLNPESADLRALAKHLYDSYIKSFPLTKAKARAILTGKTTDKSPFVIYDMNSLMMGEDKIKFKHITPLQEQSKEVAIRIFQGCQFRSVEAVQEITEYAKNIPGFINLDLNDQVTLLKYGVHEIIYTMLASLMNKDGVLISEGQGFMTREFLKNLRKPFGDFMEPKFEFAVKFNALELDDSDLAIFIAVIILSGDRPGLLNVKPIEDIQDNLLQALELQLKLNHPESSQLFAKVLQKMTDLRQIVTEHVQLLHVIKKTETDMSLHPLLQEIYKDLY
assayRemarks: GAL4-mPPARγ activation, transient transfection luciferase reporter in COS7 cells
Type: cell-based
measurementContext: Cos-7 transient transfection, PPARγ or RXRα activation assays (Table 2)
readoutKind: Activation COS7 (result in words), ToxPi chemicals

In [3]: df
Out[3]:
                                    molecule                systemtested         observed
 0  CCc1nn(C)c(C(=O)NCc2ccc(C(C)(C)C)cc2)c1Cl  GAL4-mPPARγ (Mus musculus)         Inactive
 1  O=S(=O)(O)C(F)(F)C(F)(F)C(F)(F)C(F)(F)C(F)(F)C(F)(F)C(F)(F)C(F)(F)F  GAL4-mPPARγ (Mus musculus)         Inactive
 2               COP(=S)(OC)Oc1ccc(SC)c(C)c1  GAL4-mPPARγ (Mus musculus)         Inactive
 3               O=C(Nc1ccccc1)Nc1ccnc(Cl)c1  GAL4-mPPARγ (Mus musculus)         Inactive
 4       N#CSCSC#N [Methylene dithiocyanate]  GAL4-mPPARγ (Mus musculus)         Inactive
 5        Fc1ccc(Oc2ccnc3cc(Cl)cc(Cl)c23)cc1  GAL4-mPPARγ (Mus musculus)  PPARγ activator
 6             CC(C)(c1ccc(O)cc1)c1ccc(O)cc1  GAL4-mPPARγ (Mus musculus)         Inactive
 7   O=c1ccc(=O)[nH][nH]1 [Maleic hydrazide]  GAL4-mPPARγ (Mus musculus)         Inactive
 8  [OH-].c1cc[c]([Sn+]([c]2ccccc2)[c]2ccccc2)cc1  GAL4-mPPARγ (Mus musculus)  PPARγ activator
 9  C=CCOC(Cn1ccnc1)c1ccc(Cl)cc1Cl (stereo not shown)  GAL4-mPPARγ (Mus musculus)         Inactive
10  CCOP(=S)(Oc1cnc(C(C)(C)C)nc1)OC(C)C (stereo not shown)  GAL4-mPPARγ (Mus musculus)         Inactive
11    Cc1ccn2nc(S(=O)(=O)Nc3c(F)cccc3F)nc2n1  GAL4-mPPARγ (Mus musculus)         Inactive
12  CC(C)(C)c1ccc(CSc2cnn(C(C)(C)C)c(=O)c2Cl)cc1  GAL4-mPPARγ (Mus musculus)  PPARγ activator
13  C=CCC1=C(C)C(OC(=O)C2C(C=C(C)C)C2(C)C)CC1=O (mixture of isomers) [d-cis,trans-Allethrin]  GAL4-mPPARγ (Mus musculus)         Inactive
14             CC1=NNC(=O)N(/N=C/c2cccnc2)C1  GAL4-mPPARγ (Mus musculus)         Inactive
15               CNC(=O)/C=C(\C)OP(=O)(OC)OC  GAL4-mPPARγ (Mus musculus)         Inactive
16   C[Si](Cn1cncn1)(c1ccc(F)cc1)c1ccc(F)cc1  GAL4-mPPARγ (Mus musculus)         Inactive
17              COC(=O)NS(=O)(=O)c1ccc(N)cc1  GAL4-mPPARγ (Mus musculus)         Inactive
18  Cc1nn(C)c(Oc2ccccc2)c1C=NOCc1ccc(C(=O)OC(C)(C)C)cc1 [(Z,E)-Fenpyroximate]  GAL4-mPPARγ (Mus musculus)         Inactive
